Examples of compounds with documented Potency follow.
# Protocol Text: qHTS Assay for Identifying Gametocytocidal Compounds (AID 743244); note: potency is the fitted concentration of half-maximal effect
# Setup Conditions: P. falciparum 3D7 stage III-V gametocytes, alamarBlue, 72 h
Inconclusive results are not listed. Calls of active or inactive are those of the source. Calls come from the whole dose curve; as a rule, active = well fitted curve in the direction sought with a large enough effect; inconclusive = small, poorly fitted or top-dose-only effect, or another doubt; inactive = no such curve, though single readings can be large or run the other way.

Before answering, review these 2 worked examples.
Input: Please look at this compound and report its Potency: "Cc1cc(O)c2ccccc2c1O"
Output: 15.8 µM (active)

Input: Query Potency for "COC1=C(OC)C(=O)c2ccccc2C1=O"
Output: 3.98 µM (active)

New cases:
Input: For the compound "C=C[C@@H]1CN2CC[C@@H]1C[C@H]2[C@H](O)c1ccnc2ccc(OC)cc12" , give its reported Potency.
Output: 0.296 µM (active)

Input: Return the recorded Potency value; entry: "CCCC1(C)C(C#N)(C#N)C1(C#N)C#N"
Output: 2.24 µM (active)

* * *

# Protocol Text: qHTS assay for measurement of the activity of small molecule inhibitors on Zika virus induced Caspase-3 activity in human iPSC derived neural progenitor cells (hNPCs) (AID 1224857); note: nearly all actives have a fitted effect of over 65% in size
# Setup Conditions: hNPCs ZIKV-induced caspase-3/7, Caspase-Glo luminescence, 6 h; series mostly up to 45.7 µM
Records with an inconclusive call do not appear. Activity calls are given as the source filed them. The call rests on the fitted dose curve; in most records, active means well fitted inhibition curve with a large enough effect; inconclusive means small, poorly fitted or top-dose-only effect; inactive means no such curve, though single readings can be large or run the other way.
Valid outcomes are listed here; reply with one: yes (active), no (inactive)

Worked cases, answers included:
Input: Give the logged outcome of this assay for the following molecule: Cc1cn([C@H]2CC(N=[N+]=[N-])[C@@H](CO)O2)c(=O)[nH]c1=O (some centres not stated)
Output: no

Input: Dear colleague, could you share the recorded outcome for "O=C(/C=C/c1ccc(O)c(O)c1)OCCc1ccccc1" when you have a moment?
Output: no

Input: Outcome? "Cc1ccc(O)c(N=Nc2ccccc2)n1"
Output: yes

Input: Hello, I am checking results. What call was entered for "CC(=O)N[C@H](C(=O)O)C(C)(C)SN=O" ?
Output: no

Input: Lab log entry: CNc1ncnc2c1ncn2[C@@H]1O[C@H](CO)C(O)[C@H]1O (some centres not stated) — outcome as called in the assay?
Output: no

***
Input: Recorded test outcome, item "O=S(=O)(c1cccc2c(I)cccc12)N1CCCNCC1"
Output: no

Input: Status in this test for "Nc1nc2c(ncn2[C@@H]2O[C@H](CO)[C@@H](O)[C@@H]2O)c(=O)[nH]1" ?
Output: no

* * *

# Protocol Text: qHTS of pediatric cancer cell lines to identify multiple opportunities for drug repurposing: Primary screen for NB-EBc1 cells (AID 1347095)
# Setup Conditions: NB-EBc1 neuroblastoma viability, CellTiter-Glo luminescence, 48 h; series mostly up to 46 µM
Inconclusive results are not listed. Calls of active or inactive are those of the source. Calls follow the shape of the dose curve; as a rule, active = well fitted cell-killing curve with a large enough effect; inconclusive = small, poorly fitted or top-dose-only effect; inactive = no such curve, though single readings can be large or run the other way.
Mark one answer only. Choices: t for active, f for inactive

Input: Please let me know the test result on file for "Nc1nc2ccc([N+](=O)[O-])cc2s1" .
Output: f

Input: What is the recorded call for this compound in the test? "CCCCCCCC/C=C/C(=O)O"
Output: f

Input: What call does the record list for "C=CCCCCCCCCC(=O)O" ?
Output: f

* * *

# Measured Target: D(1A) dopamine receptor (Homo sapiens)
# Protocol Text: HTS Assay for Allosteric Agonists of the Human D1 Dopamine Receptor: Primary Screen for Antagonists (AID 488983);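 note: calcium flux response to an EC80 dopamine challenge measured with no-wash dye; nearly all actives have a fitted effect of over 65% in size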
# Setup Conditions: D1 receptor cell assay, antagonist mode, qHTS titration; series mostly up to 41.8 µM
Inconclusive results are not listed. Active and inactive are the calls of the source. Calls follow the shape of the dose curve; as a rule, active = well fitted inhibition curve with a large enough effect; inconclusive = small, poorly fitted or top-dose-only effect, or effect the other way; inactive = flat fitted curve, though single readings scatter.
Choose the fitting class; nothing outside True (active), False (inactive) is accepted.

Input: Any idea what this test logged for "Oc1cc(O)cc(/C=C/c2ccc(O)c(O)c2)c1" ?
Output: False

Input: Which outcome was entered for the compound "O=C(O)[C@@H]1C[C@@H](C(=O)O)N1" in this test?
Output: False

Input: Per the assay record, what outcome was assigned to "Nc1nc(Cl)nc2c1ncn2[C@@H]1O[C@H](CO)[C@@H](O)[C@H]1O" ?
Output: False

Continuing:
Input: Outcome logged for CN1C2CCC1CC(OC(=O)C(O)c1ccccc1)C2 (stereo unspecified) in this assay:
Output: False

Input: What outcome does the record of this test show for "O=C(O)c1cc(=O)c2ccccc2[nH]1" ?
Output: False

Input: // return assay outcome for CCCCCCCCCCCCCCCC(=O)OC(CC(=O)O)C[N+](C)(C)C (stereo unspecified)
Output: True

Input: Please indicate how the test categorized "OC[C@H]1O[C@@H](n2cnc3c(Nc4ccccc4)ncnc32)[C@H](O)[C@@H]1O" .
Output: False

Input: Status in this test for "O=[N+]([O-])c1ccc2c(c1)S(=O)(=O)C=C2" ?
Output: False

Input: Record request — test call for COc1cccc(OC)c1OCCNCC1COc2ccccc2O1 (stereo unspecified)
Output: True

Input: GET /call?item= CC1CN(S(=O)(=O)c2cccc3cnccc23)CCN1 (stereo unspecified) returns the recorded outcome of this test.
Output: False

Input: Write down the call the test reported for this compound. Item: "NCCCCCCCCCCN"
Output: False

Input: Record lookup: outcome of this test for "Ic1ccc(N2CCN(Cc3c[nH]c4ncccc34)CC2)cc1" ?
Output: False

Input: Outcome logged for "CN(C)c1nc2c(Br)c(Br)c(Br)c(Br)c2[nH]1" in this assay:
Output: False
